test system: Echinochloa crus-galli (ECHCG); experiment: Test 1 glasshouse assay, post-emergence herbicidal activity; format: in vivo; details: 312 h, post-emergence (Example 1B Table 2), 62.5 g/ha, after 13 days, read-out: Percentage phytotoxicity ECHCG
pest or weed control at 62.5 g/ha for assorted molecules
The response must be a number in % with no trailing unit.

Molecule	System	Measurement Name	Readout Units	Numeric Readout
C#CCC1CC(=O)C(c2c(F)cc(-c3ccc(Cl)cn3)cc2Cl)C1=O (stereo not drawn) [Compound A8]	Echinochloa crus-galli (ECHCG)	pest or weed control at 62.5 g/ha	%	100

Dear colleague, I am looking for the recorded pest or weed control at 62.5 g/ha of the following molecule: C#CCC1CC(=O)C(c2c(C)cc(C)cc2C)C1=O (stereo not drawn) [Compound A23]
100

Follow-up entry: C#CCC1CC(=O)C(c2c(C)cc(-c3ncc(Cl)cn3)cc2C)C1=O (stereo not drawn) [Compound A5]
100

Follow-up entry: CC#CCC1CC(=O)C(c2c(C)cc(C)cc2C)C1=O (stereo not drawn) [Compound A24]
70

Follow-up entry: C#CCC1CC(=O)C(c2c(Cl)cc(-c3ccc(F)cc3F)cc2OC)C1=O (stereo not drawn) [Compound A12]
100

Follow-up entry: C#CCC1CC(=O)C(c2c(CC)cc(C)cc2CC)C1=O (stereo not drawn) [Compound A25]
100

Follow-up entry: C#CCC1CC(=O)C(c2c(Cl)cccc2Cl)C1=O (stereo not drawn) [Compound A29]
90

Follow-up entry: C#CCC1CC(=O)C(c2c(Cl)cc(-c3ccc(Cl)cn3)cc2OC)C1=O (stereo not drawn) [Compound A10]
100

Follow-up entry: C#CCC1CC(=O)C(c2c(C)cc(-c3ccc(Cl)cn3)cc2C)C1=O (stereo not drawn) [Compound A2]
90

====

test system: Alopecurus myosuroides (ALOMY); assay: Test 1 glasshouse assay, pre-emergence herbicidal activity; assay type: in vivo; settings: 312 h, visual evaluation after 13 days, read-out: Percentage phytotoxicity ALOMY
Measurement Name: pest or weed control at 250 g/ha (%)
The response must be a number in % with no trailing unit.

# count of solved cases: 6
Molecule	Numeric Readout
C#CCC1CC(=O)C(c2c(F)cc(-c3ccc(F)cc3)cc2OC)C1=O (stereo not drawn)	90
C#CCC1CC(=O)C(c2c(Cl)cc(-c3ccc(F)c(F)c3)cc2OC)C1=O (stereo not drawn)	90
C#CCC1CC(=O)C(c2c(Cl)cc(-c3ccc(Cl)cn3)cc2OC)C1=O (stereo not drawn)	100
C#CCC1CC(=O)C(c2c(C)cc(-c3ccc(F)cc3)cc2C)C1=O (stereo not drawn)	100
C#CCC1CC(=O)C(c2c(Cl)cc(-c3ccc(F)cc3F)cc2OC)C1=O (stereo not drawn)	90
C#CCC1CC(=O)C(c2c(F)cc(-c3ccc(F)cc3F)cc2OC)C1=O (stereo not drawn)	80

Dear colleague, I am looking for the recorded pest or weed control at 250 g/ha of the following molecule: C#CCC1CC(=O)C(c2c(CC)cc(C)cc2CC)C1=O (stereo not drawn)
100

Follow-up entry: C#CCC1CC(=O)C(c2c(Cl)cccc2Cl)C1=O (stereo not drawn)
70

Follow-up entry: CC#CCC1CC(=O)C(c2c(C)cc(C)cc2C)C1=O (stereo not drawn)
100

Follow-up entry: C#CCC1CC(=O)C(c2c(C)cc(C)cc2C)C1=O (stereo not drawn)
100

Follow-up entry: C#CCC1CC(=O)C(c2c(Cl)cc(-c3ccc(F)cc3)cc2OC)C1=O (stereo not drawn)
90

Follow-up entry: C#CCC1CC(=O)C(c2cc(-c3ncc(Cl)cn3)ccc2C)C1=O (stereo not drawn)
60

Follow-up entry: C#CCC1CC(=O)C(c2c(F)cc(-c3ccc(Cl)cc3)cc2Cl)C1=O (stereo not drawn)
90

Follow-up entry: C#CCC1CC(=O)C(c2c(Br)cc(C)cc2Br)C1=O (stereo not drawn)
30

Follow-up entry: C#CCC1CC(=O)C(c2c(C)cc(-c3ncc(Cl)cc3F)cc2C)C1=O (stereo not drawn)
100

Follow-up entry: C#CCC1C(=O)C(c2c(C)cc(C)cc2C)C(=O)C1CC#C (stereo not drawn)
100

Follow-up entry: C#CCC1CC(=O)C(c2cc(-c3ccc(Cl)cc3)ccc2C)C1=O (stereo not drawn)
90

Follow-up entry: C#CCC1CC(=O)C(c2c(C)cc(-c3ncc(Cl)cn3)cc2C)C1=O (stereo not drawn)
100

Follow-up entry: C#CCC1CC(=O)C(c2c(C)cc(-c3ccc(Cl)cn3)cc2C)C1=O (stereo not drawn)
90

Follow-up entry: C#CCC1CC(=O)C(c2c(F)cc(-c3ccc(F)c(F)c3)cc2OC)C1=O (stereo not drawn)
80

Follow-up entry: C#CCC1CC(=O)C(c2c(C)cc(C#C)cc2C)C1=O (stereo not drawn)
100

Follow-up entry: C#Cc1cc(C)c(C2C(=O)CC(CC#CC)C2=O)c(C)c1 (stereo not drawn)
90

====

system: Panicum miliaceum (PANMI); experiment: Test 2 glasshouse assay (IF50 formulation, X-77), pre-emergence herbicidal activity; type: in vivo; settings: 480 h, 250 g/ha, 20DAA, read-out: Percentage phytotoxicity PANMI
Measurement Name: pest or weed control at 250 g/ha (%)
The response must be a number in % with no trailing unit.

Dear colleague, I am looking for the recorded pest or weed control at 250 g/ha of the following molecule: C#CCC1CC(=O)C(c2c(Cl)cc(-c3ccc(F)cc3F)cc2OC)C1=O (centres unmarked)
100

Follow-up entry: C#CCC1CC(=O)C(c2c(Cl)cc(-c3ccc(F)cc3)cc2OC)C1=O (centres unmarked)
100

Follow-up entry: C#CCC1CC(=O)C(c2c(F)cc(-c3ccc(Cl)cc3)cc2OC)C1=O (centres unmarked)
100

Follow-up entry: C#CCC1CC(=O)C(c2cc(-c3ccc(Cl)cc3Cl)ccc2C)C1=O (centres unmarked)
20

Follow-up entry: C#CCC1CC(=O)C(c2c(Cl)cc(-c3ccc(Cl)cc3)cc2OC)C1=O (centres unmarked)
60

Follow-up entry: C#CCC1CC(=O)C(c2c(Cl)cc(-c3ccc(Cl)cn3)cc2OC)C1=O (centres unmarked)
100

Follow-up entry: C#CCC1CC(=O)C(c2c(Cl)cc(-c3ccc(F)c(F)c3)cc2OC)C1=O (centres unmarked)
100

====

tested on: Lolium perenne (LOLPE); experiment: Test 1 glasshouse assay, post-emergence herbicidal activity; type: in vivo; conditions: 312 h, post-emergence (Example 1B Table 2), 62.5 g/ha, after 13 days, read-out: Percentage phytotoxicity LOLPE
Measurement Name: pest or weed control at 62.5 g/ha (%)
The response must be a number in % with no trailing unit.

# count of solved cases: 4
Compound	pest or weed control at 62.5 g/ha / %
C#CCC1CC(=O)C(c2c(C)cc(-c3ncc(Cl)cn3)cc2C)C1=O (centres unmarked)	90
C#CCC1CC(=O)C(c2c(Cl)cc(-c3ccc(F)cc3F)cc2OC)C1=O (centres unmarked)	70
C#CCC1CC(=O)C(c2c(F)cc(-c3ccc(Cl)cn3)cc2Cl)C1=O (centres unmarked)	70
C#CCC1CC(=O)C(c2c(C)cc(C)cc2C)C1=O (centres unmarked)	90

# next compound below
Record C#CCC1CC(=O)C(c2c(Cl)cc(-c3ccc(F)c(F)c3)cc2OC)C1=O (centres unmarked) : what is its pest or weed control at 62.5 g/ha with Lolium perenne (LOLPE)?
90

====

test system: Brachiaria plantaginea (BRAPL); assay: Test 2 glasshouse assay (IF50 formulation, X-77), post-emergence herbicidal activity; assay type: in vivo; details: Urochloa plantaginea, 360 h, application rate 250 g/ha, 15 DAA, visual score, read-out: Post-emergence herbicidal activity (percentage phytotoxicity) BRAPL
Measurement Name: pest or weed control at 250 g/ha (%)
The response must be a number in % with no trailing unit.

# count of solved cases: 3
Molecule	Measurement Name	Numeric Readout
C#CCC1CC(=O)C(c2c(C)cc(-c3ncc(Cl)cc3F)cc2C)C1=O (stereo not shown)	pest or weed control at 250 g/ha	100
C#CCC1CC(=O)C(c2c(Cl)cc(-c3ccc(F)cc3)cc2OC)C1=O (stereo not shown)	pest or weed control at 250 g/ha	100
C#CCC1CC(=O)C(c2c(C)cc(-c3ccc(Cl)cn3)cc2C)C1=O (stereo not shown)	pest or weed control at 250 g/ha	100

# next molecule below
Dear colleague, I am looking for the recorded pest or weed control at 250 g/ha of the following molecule: C#CCC1CC(=O)C(c2c(Cl)cc(-c3ccc(Cl)cc3)cc2OC)C1=O (stereo not shown)
100

====

test system: Panicum miliaceum (PANMI); assay: Test 2 glasshouse assay (IF50 formulation, X-77), post-emergence herbicidal activity; format: in vivo; settings: 360 h, application rate 30 g/ha, 15 DAA, visual score, read-out: Post-emergence herbicidal activity (percentage phytotoxicity) PANMI
Measurement Name: pest or weed control at 30 g/ha (%)
The response must be a number in % with no trailing unit.

# count of solved cases: 8
Compound	Readout Units	pest or weed control at 30 g/ha
C#CCC1CC(=O)C(c2c(C)cc(-c3ncc(Cl)cc3F)cc2C)C1=O (stereo not drawn) [Compound A3]	%	100
C#CCC1CC(=O)C(c2c(Cl)cc(-c3ccc(Cl)cc3)cc2OC)C1=O (stereo not drawn) [Compound A11]	%	100
C#CCC1CC(=O)C(c2c(C)cc(-c3ccc(Cl)cn3)cc2C)C1=O (stereo not drawn) [Compound A2]	%	100
C#CCC1CC(=O)C(c2c(F)cc(-c3ccc(Cl)cn3)cc2Cl)C1=O (stereo not drawn) [Compound A8]	%	100
C#CCC1CC(=O)C(c2c(C)cc(-c3ccc(F)cc3)cc2C)C1=O (stereo not drawn) [Compound A1]	%	80
C#CCC1CC(=O)C(c2c(F)cc(-c3ccc(F)c(F)c3)cc2OC)C1=O (stereo not drawn) [Compound A22]	%	60
C#CCC1CC(=O)C(c2c(Cl)cc(-c3ccc(F)cc3F)cc2OC)C1=O (stereo not drawn) [Compound A12]	%	70
C#CCC1CC(OC(C)=O)=C(c2c(C)cc(-c3ccc(F)cc3)cc2C)C1=O (stereo not drawn) [Compound A45]	%	100

# next compound below
Record C#CCC1CC(=O)C(c2c(Cl)cc(-c3ccc(F)c(F)c3)cc2OC)C1=O (stereo not drawn) [Compound A13] : what is its pest or weed control at 30 g/ha with Panicum miliaceum (PANMI)?
100
